experimental system: human TRPA1 (Homo sapiens, UniProt O75762)
Construct: expressed in transfected cells; host or cells: CHO cells
Sequence (O75762 whole entry): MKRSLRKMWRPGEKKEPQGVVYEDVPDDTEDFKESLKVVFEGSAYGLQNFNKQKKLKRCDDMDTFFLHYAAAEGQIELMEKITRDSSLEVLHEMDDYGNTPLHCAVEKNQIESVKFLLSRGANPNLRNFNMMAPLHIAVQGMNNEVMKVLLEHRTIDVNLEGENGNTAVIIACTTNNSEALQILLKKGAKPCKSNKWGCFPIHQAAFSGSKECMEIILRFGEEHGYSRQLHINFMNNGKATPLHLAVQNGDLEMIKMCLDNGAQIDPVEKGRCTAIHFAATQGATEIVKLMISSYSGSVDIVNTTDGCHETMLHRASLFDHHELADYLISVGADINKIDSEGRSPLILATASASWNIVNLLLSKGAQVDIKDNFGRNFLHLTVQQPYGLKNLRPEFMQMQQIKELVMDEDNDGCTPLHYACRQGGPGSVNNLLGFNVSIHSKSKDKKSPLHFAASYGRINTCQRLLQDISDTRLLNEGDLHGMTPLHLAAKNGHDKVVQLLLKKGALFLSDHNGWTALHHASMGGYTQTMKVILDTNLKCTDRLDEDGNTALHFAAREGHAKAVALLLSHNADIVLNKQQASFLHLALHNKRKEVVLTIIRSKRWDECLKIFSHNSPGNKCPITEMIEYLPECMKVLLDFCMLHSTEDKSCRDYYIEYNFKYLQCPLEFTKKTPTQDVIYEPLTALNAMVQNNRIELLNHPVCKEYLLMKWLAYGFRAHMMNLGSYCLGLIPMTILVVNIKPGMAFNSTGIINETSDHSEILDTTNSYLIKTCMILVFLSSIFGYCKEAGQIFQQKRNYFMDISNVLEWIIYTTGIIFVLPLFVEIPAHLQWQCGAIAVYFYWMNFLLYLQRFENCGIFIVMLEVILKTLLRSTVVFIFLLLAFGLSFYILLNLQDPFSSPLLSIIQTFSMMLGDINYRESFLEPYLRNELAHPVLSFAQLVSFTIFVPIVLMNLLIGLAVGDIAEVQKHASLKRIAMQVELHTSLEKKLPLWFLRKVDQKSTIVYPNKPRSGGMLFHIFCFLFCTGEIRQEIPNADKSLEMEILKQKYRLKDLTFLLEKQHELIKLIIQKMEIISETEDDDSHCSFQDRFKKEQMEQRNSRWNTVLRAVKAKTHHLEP
run description: [Ca2+]i-responses in CHO cells expressing human TRPA1
Assay type: cell-based
condition label: CHO cells expressing human TRPA1, extracellular application; read-out: EC50, increases in [Ca2+]i
measured parameter: EC50
For clarity, give the value followed by its unit.

What EC50 value was documented for this molecule, CC(=O)C=O ?
700 µM

---

Tested on: MDCK cells
run description: [Ca2+]i-measurements in MDCK cells
Format: cell-based, Canine
condition label: read-out: EC50, [Ca2+]i-responses
Documented EC50 across a set of compounds
Value expressed in mM; do not type the unit.

1) C=CCN=C=S [AITC] = 0.0091

Please examine the following record next.
What measured EC50 goes with CC(=O)C=O [MG, methylglyoxal] ?
2.2

---

Tested on: TRPA1
run description: Excised inside-out patches, TRPA1 channel activity
Type: cell-based
condition label: inside-out configuration, applied to intracellular face
measured parameter: pEC50
The read-out pEC50 is expressed as -log10 of concentration in moles per litre.

// query pEC50 value for entry CC(=O)C=O [MG, methylglyoxal]
4.13
